Cited source: ChEMBL document CHEMBL4393709

# targetDesc: DNA topoisomerase 2-beta (Homo sapiens)
# assayComment: Inhibition of human topoisomerase-2beta mediated decatenation at […] using kinetoplast DNA as substrate after 30 mins in presence of ATP by ethidium bromide staining-based gel electrophoresis method relative to control
# Set-up: scale not given: the % may be the effect or the level left
measurementName: Activity (%)
Express your answer in %, writing the number without its unit.

Record request: Activity value, item COc1cc([C@@H]2c3cc4c(cc3[C@@H](O[C@@H]3O[C@@H]5CO[C@@H](C)O[C@H]5[C@H](O)[C@H]3O)[C@H]3COC(=O)[C@H]23)OCO4)cc(OC)c1O [ETOPOSIDE] 100

Record request: Activity value, item O=c1nc(SCc2cc(F)cc(C(F)(F)F)c2)nc(SCc2cccc(Cl)c2)[nH]1 91.8

Record request: Activity value, item O=c1nc(SCc2ccc(C(F)(F)F)cc2)nc(SCc2ccccc2F)[nH]1 98.2

Record request: Activity value, item O=c1nc(SCc2cc(F)cc(C(F)(F)F)c2)nc(SCc2ccccc2F)[nH]1 99.4
